biological target: human progesterone receptor A (Homo sapiens, UniProt P06401); test: Progesterone receptor-antagonistic action in stably transfected SK-N-MC cells, MMTV-LUC reporter (PR-A); conditions: antagonistic potency vs 0.1 nmol/l promegestone, 24 hours
ASSAY_METRIC: IC50 (nM)

COMPOUND	ASSAY_METRIC	EXPERIMENTAL_VALUE
C[C@]12C[C@H](c3ccc(CNC(=O)Nc4ccc(F)cc4)cc3)C3=C4CCC(=O)C=C4CC[C@H]3[C@@H]1CC[C@@]2(O)C(F)(F)C(F)(F)F [Example 33]	IC50	0.8
C[C@]12C[C@H](c3ccc(COC(=O)NCCC(=O)O)cc3)C3=C4CCC(=O)C=C4CC[C@H]3[C@@H]1CC[C@@]2(O)C(F)(F)C(F)(F)F [Example 55]	IC50	8
C[C@]12C[C@H](c3cccc(C4CC4)c3)C3=C4CCC(=O)C=C4CC[C@H]3[C@@H]1CC[C@@]2(O)C(F)(F)C(F)(F)F [Example 12]	IC50	4
CC(C)NC(=O)OCc1ccc([C@H]2C[C@@]3(C)[C@@H](CC[C@@]3(O)C(F)(F)C(F)(F)F)[C@@H]3CCC4=CC(=O)CCC4=C32)cc1 [Example 42]	IC50	0.1
CC(C)(C)NC(=O)NCc1ccc([C@H]2C[C@@]3(C)[C@@H](CC[C@@]3(O)C(F)(F)C(F)(F)F)[C@@H]3CCC4=CC(=O)CCC4=C32)cc1 [Example 20]	IC50	0.7

P: Cc1ccc(NC(=O)NCc2ccc([C@H]3C[C@@]4(C)[C@@H](CC[C@@]4(O)C(F)(F)C(F)(F)F)[C@@H]4CCC5=CC(=O)CCC5=C43)cc2)cc1 [Example 25]
Q: C[C@]12C[C@H](c3ccc(COC(=O)Nc4ccccc4)cc3)C3=C4CCC(=O)C=C4CC[C@H]3[C@@H]1CC[C@@]2(O)C(F)(F)C(F)(F)F [Example 46]
R: COc1ccc(NC(=O)NCc2ccc([C@H]3C[C@@]4(C)[C@@H](CC[C@@]4(O)C(F)(F)C(F)(F)F)[C@@H]4CCC5=CC(=O)CCC5=C43)cc2)cc1 [Example 32]
S: C[C@]12C[C@H](c3ccc(COC(=O)Nc4ccc(N5CCCCC5)cc4)cc3)C3=C4CCC(=O)C=C4CC[C@H]3[C@@H]1CC[C@@]2(O)C(F)(F)C(F)(F)F [Example 45]
Query: Output the entries ranked by IC50 from maximum down to minimum. Answer format: the labels, in the requested order.
Reply: P, R, S, Q
(P: 0.3 nM, R: 0.1 nM, S: 0.02 nM, Q: 0.01 nM)

a: CC1(c2cccc([C@H]3C[C@@]4(C)[C@@H](CC[C@@]4(O)C(F)(F)C(F)(F)F)[C@@H]4CCC5=CC(=O)CCC5=C43)c2)CC1 [Example 13]
b: CC(C)NC(=O)NCc1ccc([C@H]2C[C@@]3(C)[C@@H](CC[C@@]3(O)C(F)(F)C(F)(F)F)[C@@H]3CCC4=CC(=O)CCC4=C32)cc1 [Example 19]
Query: So which one has the bigger IC50 here, a or b ? Select an item and report its label.
Reply: a

----------
Target: human progesterone receptor B (Homo sapiens, UniProt P06401)
Sequence (P06401 1-933): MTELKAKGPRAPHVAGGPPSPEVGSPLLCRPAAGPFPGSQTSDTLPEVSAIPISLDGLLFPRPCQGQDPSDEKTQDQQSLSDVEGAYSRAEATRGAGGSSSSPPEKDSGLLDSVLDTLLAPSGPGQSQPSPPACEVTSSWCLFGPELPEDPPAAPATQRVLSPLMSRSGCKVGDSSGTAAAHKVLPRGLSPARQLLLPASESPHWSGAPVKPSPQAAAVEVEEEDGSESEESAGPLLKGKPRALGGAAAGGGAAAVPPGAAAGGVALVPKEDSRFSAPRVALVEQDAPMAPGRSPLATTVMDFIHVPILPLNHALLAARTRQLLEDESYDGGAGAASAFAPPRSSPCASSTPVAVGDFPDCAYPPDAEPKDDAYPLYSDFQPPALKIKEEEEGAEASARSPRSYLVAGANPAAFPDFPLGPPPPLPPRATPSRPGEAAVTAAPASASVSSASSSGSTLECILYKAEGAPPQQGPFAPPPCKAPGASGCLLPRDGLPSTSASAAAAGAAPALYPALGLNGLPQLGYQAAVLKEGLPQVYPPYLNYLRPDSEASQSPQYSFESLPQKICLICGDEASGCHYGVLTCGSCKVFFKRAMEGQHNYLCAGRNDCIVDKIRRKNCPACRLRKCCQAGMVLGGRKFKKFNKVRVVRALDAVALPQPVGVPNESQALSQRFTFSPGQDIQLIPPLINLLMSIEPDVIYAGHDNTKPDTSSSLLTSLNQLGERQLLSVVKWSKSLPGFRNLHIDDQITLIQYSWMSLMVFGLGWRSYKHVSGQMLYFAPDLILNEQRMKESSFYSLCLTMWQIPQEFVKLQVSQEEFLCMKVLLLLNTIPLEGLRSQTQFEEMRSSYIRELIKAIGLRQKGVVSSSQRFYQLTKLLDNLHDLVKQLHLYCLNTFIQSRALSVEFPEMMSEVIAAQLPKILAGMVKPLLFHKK
Assay: Progesterone receptor-antagonistic action in stably transfected SK-N-MC cells, MMTV-LUC reporter (PR-B)
Conditions: antagonistic potency vs 0.1 nmol/l promegestone, 24 hours
pIC50: −log10 of the molar value.
ASSAY_METRIC: pIC50

Below: 2 compounds and their reported pIC50.
> print(dat)
                                 cpd.smiles  experimental.value
1  C[C@]12C[C@H](c3ccc(-c4ccc(-c5nnn[nH]5)cc4)cc3)C3=C4CCC(=O)C=C4CC[C@H]3[C@@H]1CC[C@@]2(O)C(F)(F)C(F)(F)F                9.05
2  C[C@]12C[C@H](c3ccc(CNC(=O)Nc4ccc(Cl)cc4)cc3)C3=C4CCC(=O)C=C4CC[C@H]3[C@@H]1CC[C@@]2(O)C(F)(F)C(F)(F)F                9.10

I: CC(C)(C)NC(=O)NCc1ccc([C@H]2C[C@@]3(C)[C@@H](CC[C@@]3(O)C(F)(F)C(F)(F)F)[C@@H]3CCC4=CC(=O)CCC4=C32)cc1
II: CCOC(=O)CCNC(=O)NCc1ccc([C@H]2C[C@@]3(C)[C@@H](CC[C@@]3(O)C(F)(F)C(F)(F)F)[C@@H]3CCC4=CC(=O)CCC4=C32)cc1
Query: From the items above, decide which of I and II has the lower pIC50 reading. Select an item and report its label.
Reply: I
(I: 9.00, II: 9.22)
